assay: Pharmacokinetics of rivaroxaban in rats after avitinib or gefitinib pretreatment; assay type: in vivo, Sprague–Dawley (SD) rats; conditions: male, Sprague-Dawley, rat, plasma, oral, plasma concentration of rivaroxaban, 2 h; avitinib group, Mean
parameter: concentration at 2 h (ng/mL)
Express the result in ng/mL but write the number alone.

For the compound O=C(NC[C@H]1CN(c2ccc(N3CCOCC3=O)cc2)C(=O)O1)c1ccc(Cl)s1 [rivaroxaban, Rivaroxaban] , give its measured concentration at 2 h value.
1650

###

assay: Pharmacokinetics of rivaroxaban in rats after avitinib or gefitinib pretreatment; format: in vivo, Sprague–Dawley (SD) rats; details: male, Sprague-Dawley, rat, plasma, po, 10 mg/kg, rats, rivaroxaban 10 mg/kg oral; avitinib group (30 mg/kg pretreatment); read-out: AUC(0–t)
parameter: AUC(0-t)
Provide the measurement as a number trailed by its unit.

For the compound O=C(NC[C@H]1CN(c2ccc(N3CCOCC3=O)cc2)C(=O)O1)c1ccc(Cl)s1 , give its measured AUC(0-t) value.
9000 ng·h/mL
